Target: HLA-A*03:01
Assay: IEDB peptide-MHC binding, purified MHC/competitive/fluorescence; filed as Kd, often an IC50 or EC50 that approximates it; bounds were set here for any values at or beyond the usual limits of such assays
Settings: source organism: Yersinia pestis Nepal516
Observed property: pKd
Remember, pKd is on a log scale: it is -log10 of the molar concentration.

Task: Return pKd measured with HLA-A*03:01 given this sequence: "MTTSMTMSY"
Result: 6.52

----------
Target: HLA-B*40:02
Assay: IEDB peptide-MHC binding, purified MHC/competitive/radioactivity; filed as Kd, often an IC50 or EC50 that approximates it; bounds were set here for any values at or beyond the usual limits of such assays
Settings: source organism: Mammarenavirus machupoense
Observed property: Kd (nM)
Expressed in nM, but write only the number.

Task: So what does the record say about Kd for "EEVLDVCPL" ?
Result: 85.2

----------
Molecular target: HLA-A*03:01
Assay: IEDB peptide-MHC binding, purified MHC/competitive/fluorescence; filed as Kd, often an IC50 or EC50 that approximates it; bounds were set here for any values at or beyond the usual limits of such assays
Conditions: source organism: Escherichia coli O139:H28 str. E24377A
Observed property: Kd (nM)
Expressed in nM, but write only the number.

Task: So what does the record say about Kd for "CLLNYSGLK" ?
Result: 27.8

----------
Target: HLA-A*01:01
Experiment: IEDB peptide-MHC binding, purified MHC/competitive/fluorescence; filed as Kd, often an IC50 or EC50 that approximates it; bounds were set here for any values at or beyond the usual limits of such assays
Details: source organism: Entamoeba histolytica HM-1:IMSS
pKd: −log10 of the molar value.
Observed property: pKd

Task: So what does the record say about pKd for "EVIRATYPS" ?
Result: ≤ 5.30

----------
Molecular target: HLA-A*01:01
Assay: IEDB peptide-MHC binding, purified MHC/direct/fluorescence; filed as Kd, often an IC50 or EC50 that approximates it; bounds were set here for any values at or beyond the usual limits of such assays
Details: source organism: Influenza A virus (A/Hong Kong/213/2003(H5N1))
pKd: −log10 of the molar value.
Observed property: pKd

Task: So what does the record say about pKd for "CFMYSDFHF" ?
Result: ≤ 4.70

----------
Target: HLA-B*46:01
Assay: IEDB peptide-MHC binding, purified MHC/direct/fluorescence; filed as Kd, often an IC50 or EC50 that approximates it; bounds were set here for any values at or beyond the usual limits of such assays
Conditions: source organism: Yellow fever virus 1899/81
Observed property: Kd

Task: So what does the record say about Kd for "VYMDAVFEY" ?
Result: ≥ 20 µM

----------
Provide the recorded Kd for the entries that follow.
Target: HLA-A*01:01
Experiment: IEDB peptide-MHC binding, purified MHC/competitive/fluorescence; filed as Kd, often an IC50 or EC50 that approximates it; bounds were set here for any values at or beyond the usual limits of such assays
Settings: source organism: Homo sapiens
Expressed in nM, but write only the number.

Task: Return Kd measured with HLA-A*01:01 given this sequence: "SSDLRSWTF"
Result: 538

Task: Return Kd measured with HLA-A*01:01 given this sequence: "TFMDHVLRY"
Result: 1400

----------
Molecular target: HLA-B*51:01
Test: IEDB peptide-MHC binding, purified MHC/competitive/fluorescence; filed as Kd, often an IC50 or EC50 that approximates it; bounds were set here for any values at or beyond the usual limits of such assays
Details: source organism: Orthohantavirus tulaense
Observed property: Kd

Task: Return Kd measured with HLA-B*51:01 given this sequence: "VVDALRNIY"
Result: ≥ 20 µM
